Source listed as ChEMBL document CHEMBL1938288.

assay: Oral bioavailability in CD1 mouse at 15 mg/kg; format: ADME, organism-based; conditions: in vivo

{"Structure As Smiles": "O=C(/C=C/c1ccc2c(c1)C(=O)CC1(CCN(Cc3ccccc3)CC1)O2)NO", "Uom": "%", "bioavailability": 31.5}

###

test system: HCT-116; experiment: Antiproliferative activity against human HCT116 cells after 72 hrs by CellTiter-Glo luminescent cell viability assay; format: functional, cell-based; conditions: HCT-116, 72 h
Measured Property: IC50 (µM)

{"Molecule": "O=C(/C=C/c1ccc2c(c1)OC1(CCNCC1)CC2=O)NO", "Uom": "µM", "Readout Qualifier": "=", "Test Value": 35.5}
{"Molecule": "O=C(/C=C/c1ccc2c(c1)C(=O)CC1(CCN(C(=O)c3ccccc3)CC1)O2)NO", "Uom": "µM", "Readout Qualifier": "=", "Test Value": 2.2}
{"Molecule": "O=C(/C=C/c1ccc2c(c1)C(=O)CC1(CCNCC1)O2)NO", "Uom": "µM", "Readout Qualifier": "=", "Test Value": 1.59}
{"Molecule": "CC(=O)N1CCC2(CC1)CC(=O)c1ccc(/C=C/C(=O)NO)cc1O2", "Uom": "µM", "Readout Qualifier": "=", "Test Value": 36}
{"Molecule": "CCOC(=O)N1CCC2(CC1)CC(=O)c1cc(/C=C/C(=O)NO)ccc1O2", "Uom": "µM", "Readout Qualifier": "=", "Test Value": 2.14}
{"Molecule": "O=C(/C=C/c1ccc2c(c1)C(=O)C1(CCN(C(=O)c3ccccc3)CC1)O2)NO", "Uom": "µM", "Readout Qualifier": "=", "Test Value": 12.3}
{"Molecule": "CCOC(=O)N1CCC2(CC1)CC(=O)c1ccc(/C=C/C(=O)NO)cc1O2", "Uom": "µM", "Readout Qualifier": "=", "Test Value": 3.03}
{"Molecule": "O=C(NO)c1ccc2c(c1)C(=O)CC1(CCN(C(=O)c3ccccc3)CC1)O2", "Uom": "µM", "Readout Qualifier": ">", "Test Value": 50}
{"Molecule": "CC(=O)NC1CC2(CCN(Cc3ccccc3)CC2)Oc2ccc(/C=C/C(=O)NO)cc21 (stereo not given)", "Uom": "µM", "Readout Qualifier": "=", "Test Value": 32.8}
{"Molecule": "O=C(/C=C/c1ccc2c(c1)OC1(CCN(C(=O)c3ccccc3)CC1)CC2=O)NO", "Uom": "µM", "Readout Qualifier": "=", "Test Value": 4.92}

###

Reported values of pIC50 for individual entries
test system: K562; experiment: Antiproliferative activity against human K562 cells after 72 hrs by CellTiter-Glo luminescent cell viability assay; type: functional, cell-based; conditions: K562, 72 h
pIC50: −log10 of the molar value.

{"Compound": "CN1CCC2(CC1)Oc1ccc(/C=C/C(=O)NO)cc1C2=O", "Readout Qualifier": "=", "pIC50": 6.40}
{"Compound": "O=C(/C=C/c1ccc2c(c1)C(=O)CC1(CCNCC1)O2)NO", "Readout Qualifier": "=", "pIC50": 5.24}
{"Compound": "O=C(/C=C/c1ccc2c(c1)C(=O)C1(CCNCC1)O2)NO", "Readout Qualifier": "=", "pIC50": 5.77}
{"Compound": "O=C(/C=C/c1ccc2c(c1)OC1(CCN(Cc3ccccc3)CC1)CC2=O)NO", "Readout Qualifier": "=", "pIC50": 5.05}
{"Compound": "O=C(NO)c1ccc2c(c1)C(=O)CC1(CCN(C(=O)c3ccccc3)CC1)O2", "Readout Qualifier": "<", "pIC50": 4.30}
{"Compound": "CC(=O)N1CCC2(CC1)CC(=O)c1ccc(/C=C/C(=O)NO)cc1O2", "Readout Qualifier": "=", "pIC50": 5.22}
{"Compound": "O=C(/C=C/c1ccc2c(c1)C(O)CC1(CCN(Cc3ccccc3)CC1)O2)NO (configuration not stated)", "Readout Qualifier": "=", "pIC50": 5.53}
{"Compound": "O=C(/C=C/c1ccc2c(c1)OC1(CCN(C(=O)c3ccccc3)CC1)CC2=O)NO", "Readout Qualifier": "=", "pIC50": 5.50}
{"Compound": "CN1CCC2(CC1)CC(=O)c1ccc(/C=C/C(=O)NO)cc1O2", "Readout Qualifier": "=", "pIC50": 5.35}
{"Compound": "O=C(/C=C/c1ccc2c(c1)C(=O)C1(CCN(C(=O)c3ccccc3)CC1)O2)NO", "Readout Qualifier": "=", "pIC50": 5.13}
{"Compound": "CC(=O)N1CCC2(CC1)Oc1ccc(/C=C/C(=O)NO)cc1C2=O", "Readout Qualifier": "<", "pIC50": 4.30}
{"Compound": "CCOC(=O)N1CCC2(CC1)Oc1ccc(/C=C/C(=O)NO)cc1C2=O", "Readout Qualifier": "=", "pIC50": 5.58}
{"Compound": "CC(=O)N1CCC2(CC1)CC(=O)c1cc(/C=C/C(=O)NO)ccc1O2", "Readout Qualifier": "=", "pIC50": 5.03}
{"Compound": "O=C(NO)c1ccc2c(c1)C(=O)CC1(CCN(Cc3ccccc3)CC1)O2", "Readout Qualifier": "=", "pIC50": 4.80}
{"Compound": "CCOC(=O)N1CCC2(CC1)CC(=O)c1cc(/C=C/C(=O)NO)ccc1O2", "Readout Qualifier": "=", "pIC50": 5.68}
{"Compound": "O=C(/C=C/c1ccc2c(c1)CCC1(CCN(Cc3ccccc3)CC1)O2)NO", "Readout Qualifier": "=", "pIC50": 4.41}
{"Compound": "CC(=O)N1CCC2(CC1)CC(=O)c1cc(C(=O)NO)ccc1O2", "Readout Qualifier": "<", "pIC50": 4.30}
{"Compound": "CC(=O)NC1CC2(CCN(Cc3ccccc3)CC2)Oc2ccc(/C=C/C(=O)NO)cc21 (configuration not stated)", "Readout Qualifier": "<", "pIC50": 4.30}
{"Compound": "CCOC(=O)N1CCC2(CC1)CC(=O)c1ccc(/C=C/C(=O)NO)cc1O2", "Readout Qualifier": "=", "pIC50": 5.66}
{"Compound": "CN1CCC2(CC1)CC(=O)c1cc(C(=O)NO)ccc1O2", "Readout Qualifier": "<", "pIC50": 4.30}
{"Compound": "CN1CCC2(CC1)CC(=O)c1cc(/C=C/C(=O)NO)ccc1O2", "Readout Qualifier": "=", "pIC50": 6.09}
{"Compound": "O=C(/C=C/c1ccc2c(c1)OC1(CCNCC1)CC2=O)NO", "Readout Qualifier": "<", "pIC50": 4.30}

###

Below, each entry is listed alongside its reported bioavailability.
assay: Oral bioavailability in mouse; type: ADME, organism-based; settings: in vivo
Measured Property: bioavailability

{"Molecule": "O=C(CCCCCCC(=O)Nc1ccccc1)NO [VORINOSTAT]", "Measured Property": "bioavailability", "Test Value": "< 10%"}
{"Molecule": "Cc1[nH]c2ccccc2c1CCNCc1ccc(/C=C/C(=O)NO)cc1 [PANOBINOSTAT]", "Measured Property": "bioavailability", "Test Value": "< 10%"}
{"Molecule": "O=C(/C=C/c1cccc(S(=O)(=O)Nc2ccccc2)c1)NO [BELINOSTAT]", "Measured Property": "bioavailability", "Test Value": "< 10%"}

###

test: Cmax in CD1 mouse at 15 mg/kg, po; type: ADME, organism-based; design: dose 15 mg/kg, route oral; conditions: in vivo

{"Structure As Smiles": "O=C(/C=C/c1ccc2c(c1)C(=O)CC1(CCN(Cc3ccccc3)CC1)O2)NO", "Cmax": "823 nM"}

###

system: HCT-116; assay: Antiproliferative activity against human HCT116 cells after 72 hrs by CellTiter-Glo luminescent cell viability assay; type: functional, cell-based; settings: HCT-116, 72 h
# maps each entry to its IC50
Measured Property: IC50 (µM)

{"Molecule": "CC(=O)N1CCC2(CC1)CC(=O)c1cc(C(=O)NO)ccc1O2", "Readout Qualifier": ">", "Test Value": 50}
{"Molecule": "CN1CCC2(CC1)CC(=O)c1ccc(/C=C/C(=O)NO)cc1O2", "Readout Qualifier": "=", "Test Value": 5.72}
{"Molecule": "O=C(/C=C/c1ccc2c(c1)C(O)CC1(CCN(Cc3ccccc3)CC1)O2)NO (stereo not given)", "Readout Qualifier": "=", "Test Value": 2.33}
{"Molecule": "CN1CCC2(CC1)CC(=O)c1cc(C(=O)NO)ccc1O2", "Readout Qualifier": ">", "Test Value": 50}
{"Molecule": "O=C(NO)c1ccc2c(c1)C(=O)CC1(CCN(Cc3ccccc3)CC1)O2", "Readout Qualifier": "=", "Test Value": 15}
